experiment: Plasma stability assay (Table 10); format: in vitro ADME; details: both sexes, Wistar, rat plasma (EDTA), 37° C., 100 uM peptide, One Phase Decay, read-out: Stability (t1/2, mins) Plasma
*1 amine or outer side, *2 acyl side, *3 side chain or, on linkers, in order; H or OH if unused. Where a SMILES comes first, the peptide text is derived from it. Bridges are numbered along the chain shown (N, C = ends). [ ]: non-standard residue; d: D form. Phe(4-NO2) = N[C@@H](Cc1ccc([N+](=O)[O-])cc1)C(=O)O; NHCH2CMe2S = CC(C)(CN[*:1])S[*:2]; NMeR = CN[C@@H](CCCNC(=N)N)C(=O)O; X1 = CC(C)(CN[*:2])S[*:1]; Sar = CNCC(=O)O
Readout Name: half-life at 100 uM (min)
Give just the number in min; leave the unit off.

Use the examples below as a reference point.
[[record]]
compound = "CC(C)C[C@H](NC(=O)[C@H](Cc1ccc([N+](=O)[O-])cc1)NC(=O)CN(C)C(=O)[C@@H](N)Cc1ccc(O)cc1)C(=O)N[C@@H](CCCNC(=N)N)C(=O)N(C)[C@@H](CCCNC(=N)N)C(=O)N[C@@H]1CC(=O)NCC(C)(C)SSC[C@H](C(=O)N[C@H](CCCCN)C(N)=O)NC(=O)[C@@H](CCCNC(=N)N)NC1=O [CP14] (H-Y[Sar][Phe(4-NO2)]LR[NMeR][dD][dR][dC][dK]-NH2; linker 7-9 via NHCH2CMe2S)"
reported_value = 70.8

[[record]]
compound = "CC(C)C[C@H](NC(=O)[C@H](Cc1ccc([N+](=O)[O-])cc1)NC(=O)CN(C)C(=O)[C@@H](N)Cc1ccc(O)cc1)C(=O)N[C@@H](CCCNC(=N)N)C(=O)N[C@H](CCCNC(=N)N)C(=O)N[C@@H]1CSSC(C)(C)CNC(=O)C[C@H](C(=O)N[C@@H](CCCCN)C(N)=O)NC(=O)[C@H](CCCNC(=N)N)NC1=O [CP13] (H-Y[Sar][Phe(4-NO2)]LR[dR][dC]R[dD]K-NH2; linker 7-9 via X1)"
reported_value = 63.3


Q. Entry CC1(C)CNC(=O)C[C@@H](NC(=O)[C@@H](N)Cc2ccc(O)cc2)C(=O)NCC(=O)N[C@@H](Cc2ccccc2)C(=O)N[C@H](C(=O)N[C@@H](CCCNC(=N)N)C(=O)N[C@@H](CCCNC(=N)N)C(N)=O)CSS1 [DP-7-12, c(Tyr-D(Asp)-Gly-Phe-SSa-Arg-Arg)] (H-Y[dD]GFCRR-NH2; linker 2-5 via NHCH2CMe2S) has what half-life at 100 uM?
A. 206

* * *

target: KOP (Homo sapiens, UniProt P41145); experiment: In vitro cAMP activity at KOP (Table 10); type: cell-based; settings: cAMP inhibition, four-parameter regression, normalised to U50488H
Sequence (P41145 whole entry): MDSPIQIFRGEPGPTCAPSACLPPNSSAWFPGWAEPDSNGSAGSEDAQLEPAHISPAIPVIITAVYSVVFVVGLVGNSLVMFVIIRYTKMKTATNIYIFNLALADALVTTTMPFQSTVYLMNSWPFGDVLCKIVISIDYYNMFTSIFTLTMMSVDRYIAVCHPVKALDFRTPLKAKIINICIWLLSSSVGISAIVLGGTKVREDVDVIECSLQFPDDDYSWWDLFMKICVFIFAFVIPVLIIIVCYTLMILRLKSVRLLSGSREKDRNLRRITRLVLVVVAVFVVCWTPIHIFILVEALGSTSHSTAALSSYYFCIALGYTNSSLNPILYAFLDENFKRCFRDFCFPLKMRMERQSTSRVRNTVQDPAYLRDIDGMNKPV
*1 amine or outer side, *2 acyl side, *3 side chain or, on linkers, in order; H or OH if unused. Where a SMILES comes first, the peptide text is derived from it. Bridges are numbered along the chain shown (N, C = ends). [ ]: non-standard residue; d: D form. ξ: configuration not given here. Phe(4-Cl) = N[C@@H](Cc1ccc(Cl)cc1)C(=O)O; NHCH2CMe2S = CC(C)(CN[*:1])S[*:2]; X1 = CC(C)(CN[*:2])S[*:1]; ξC = NC(CS)C(=O)O; Sar = CNCC(=O)O
Listing of recorded EC50 by entry.

Use the examples below as a reference point.
[[record]]
compound = "CC1(C)CNC(=O)C[C@@H](C(=O)N[C@@H](CCCNC(=N)N)C(=O)N[C@@H](CCCNC(=N)N)C(N)=O)NC(=O)[C@H](Cc2ccccc2)NC(=O)CNC(=O)C(NC(=O)[C@@H](N)Cc2ccc(O)cc2)CSS1 (stereo partly shown)"
readout_name = "EC50"
reported_value = "1270 nM"

[[record]]
compound = "CC1(C)CNC(=O)C[C@H](C(=O)N[C@@H](CCCNC(=N)N)C(=O)N[C@@H](CCCNC(=N)N)C(N)=O)NC(=O)[C@H](Cc2ccccc2)NC(=O)CNC(=O)[C@@H](NC(=O)[C@@H](N)Cc2ccc(O)cc2)CSS1"
readout_name = "EC50"
reported_value = "> 10000 nM"

[[record]]
compound = "CC[C@H](C)[C@H](NC(=O)C1CSSC(C)(C)CNC(=O)C[C@@H](NC(=O)[C@H](Cc2ccccc2)NC(=O)CNC(=O)CNC(=O)[C@@H](N)Cc2ccc(O)cc2)C(=O)N[C@@H](CCCNC(=N)N)C(=O)N1)C(=O)N[C@@H](CCCNC(=N)N)C(=O)N1CCC[C@H]1C(=O)N[C@@H](CCCCN)C(N)=O (stereo partly shown) [DP-11-06] (H-YGGF[dD]R[ξC]IRPK-NH2; linker 5-7 via NHCH2CMe2S; N-terminus assumed)"
readout_name = "EC50"
reported_value = "0.75 nM"


Q. Entry CC(C)C[C@H](NC(=O)[C@H](Cc1ccc(Cl)cc1)NC(=O)CN(C)C(=O)[C@@H](N)Cc1ccc(O)cc1)C(=O)N[C@@H](CCCNC(=N)N)C(=O)N[C@H](CCCNC(=N)N)C(=O)NC1CSSC(C)(C)CNC(=O)C[C@@H](C(=O)N[C@@H](CCCCN)C(N)=O)NC(=O)[C@H](CCCNC(=N)N)NC1=O (stereo partly shown) [CP10] (H-Y[Sar][Phe(4-Cl)]LR[dR][ξC]RDK-NH2; linker 7-9 via X1; N-terminus assumed) has what EC50?
A. 0.94 nM

* * *

Listing of recorded half-life by entry.
assay: Plasma stability assay (Table 10); assay type: in vitro ADME; conditions: rat plasma, 37° C., 100 uM peptide, One Phase Decay; read-out: Stability (t1/2, mins) Plasma
*1 amine or outer side, *2 acyl side, *3 side chain or, on linkers, in order; H or OH if unused. Where a SMILES comes first, the peptide text is derived from it. Bridges are numbered along the chain shown (N, C = ends). [ ]: non-standard residue; d: D form. ξ: configuration not given here. Phe(4-NO2) = N[C@@H](Cc1ccc([N+](=O)[O-])cc1)C(=O)O; Phe(4-Cl) = N[C@@H](Cc1ccc(Cl)cc1)C(=O)O; NHCH2CMe2S = CC(C)(CN[*:1])S[*:2]; NMeR = CN[C@@H](CCCNC(=N)N)C(=O)O; X1 = CC(C)(CN[*:2])S[*:1]; ξC = NC(CS)C(=O)O; Sar = CNCC(=O)O

Use the examples below as a reference point.
[[record]]
compound = "CC1(C)CNC(=O)C[C@@H](C(=O)N[C@@H](CCCNC(=N)N)C(=O)N[C@@H](CCCNC(=N)N)C(N)=O)NC(=O)[C@H](Cc2ccccc2)NC(=O)CNC(=O)C(NC(=O)[C@@H](N)Cc2ccc(O)cc2)CSS1 (stereo partly drawn) [CP1, c(Tyr-SSa-Gly-Phe-L-Asp-Arg-Arg)]"
readout_name = "half-life"
reported_value = "< 0.01 min"

[[record]]
compound = "CC(C)C[C@H](NC(=O)[C@H](Cc1ccc(Cl)cc1)NC(=O)CN(C)C(=O)[C@@H](N)Cc1ccc(O)cc1)C(=O)N[C@@H](CCCNC(=N)N)C(=O)N[C@H](CCCNC(=N)N)C(=O)N[C@H]1CSSC(C)(C)CNC(=O)C[C@@H](C(N)=O)NC1=O [CP9] (H-Y[Sar][Phe(4-Cl)]LR[dR]CD-NH2; linker 7-8 via X1)"
readout_name = "half-life"
reported_value = "85.5 min"

[[record]]
compound = "CC1(C)CNC(=O)C[C@@H](NC(=O)CNC(=O)[C@@H](N)Cc2ccc(O)cc2)C(=O)N[C@@H](Cc2ccccc2)C(=O)N[C@H](C(=O)N[C@@H](CCCNC(=N)N)C(=O)N[C@@H](CCCNC(=N)N)C(N)=O)CSS1 [DP-7-14, c(Tyr-Gly-D(Asp)-Phe-SSa-Arg-Arg)] (H-YG[dD]FCRR-NH2; linker 3-5 via NHCH2CMe2S)"
readout_name = "half-life"
reported_value = "< 0.01 min"

[[record]]
compound = "CC[C@H](C)[C@H](NC(=O)C1CSSC(C)(C)CNC(=O)C[C@@H](NC(=O)[C@H](Cc2ccccc2)NC(=O)CNC(=O)CNC(=O)[C@@H](N)Cc2ccc(O)cc2)C(=O)N[C@@H](CCCNC(=N)N)C(=O)N1)C(=O)N[C@@H](CCCNC(=N)N)C(=O)N1CCC[C@H]1C(=O)N[C@@H](CCCCN)C(N)=O (stereo partly shown) [DP-11-06] (H-YGGF[dD]R[ξC]IRPK-NH2; linker 5-7 via NHCH2CMe2S; N-terminus assumed)"
readout_name = "half-life"
reported_value = "30 min"

[[record]]
compound = "CC(C)C[C@H](NC(=O)[C@H](Cc1ccc([N+](=O)[O-])cc1)NC(=O)CN(C)C(=O)[C@@H](N)Cc1ccc(O)cc1)C(=O)N[C@@H](CCCNC(=N)N)C(=O)N(C)[C@@H](CCCNC(=N)N)C(=O)NC1CSSC(C)(C)CNC(=O)C[C@@H](C(=O)N[C@@H](CCCCN)C(N)=O)NC(=O)[C@H](CCCNC(=N)N)NC1=O (stereo partly shown) [CP12] (H-Y[Sar][Phe(4-NO2)]LR[NMeR][ξC]RDK-NH2; linker 7-9 via X1; N-terminus assumed)"
readout_name = "half-life"
reported_value = "< 0.01 min"

[[record]]
compound = "CC1(C)CNC(=O)C[C@H](C(=O)N[C@@H](CCCNC(=N)N)C(=O)N[C@@H](CCCNC(=N)N)C(N)=O)NC(=O)[C@H](Cc2ccccc2)NC(=O)C(NC(=O)CNC(=O)[C@@H](N)Cc2ccc(O)cc2)CSS1 (stereo partly drawn) [DP-7-13, c(Tyr-Gly-SSa-Phe-D(Asp)-Arg-Arg)] (H-YG[ξC]F[dD]RR-NH2; linker 3-5 via X1; N-terminus assumed)"
readout_name = "half-life"
reported_value = "< 0.01 min"


# ---- query compound ----
Q. Entry CC1(C)CNC(=O)C[C@H](NC(=O)[C@@H](N)Cc2ccc(O)cc2)C(=O)NCC(=O)N[C@@H](Cc2ccccc2)C(=O)NC(C(=O)N[C@@H](CCCNC(=N)N)C(=O)N[C@@H](CCCNC(=N)N)C(N)=O)CSS1 (stereo partly drawn) [CP2, c(Tyr-Asp-Gly-Phe-SSa-Arg-Arg)] (H-YDGF[ξC]RR-NH2; linker 2-5 via NHCH2CMe2S; N-terminus assumed) has what half-life?
A. < 0.01 min

Hello, the source for this data is patent US20220089646A1, in case you need it.
